Catalogue of pIC50 readings, one per entry.
subject-of-test: Human topo IIα (Homo sapiens, UniProt P11388)
Sequence (P11388 whole entry): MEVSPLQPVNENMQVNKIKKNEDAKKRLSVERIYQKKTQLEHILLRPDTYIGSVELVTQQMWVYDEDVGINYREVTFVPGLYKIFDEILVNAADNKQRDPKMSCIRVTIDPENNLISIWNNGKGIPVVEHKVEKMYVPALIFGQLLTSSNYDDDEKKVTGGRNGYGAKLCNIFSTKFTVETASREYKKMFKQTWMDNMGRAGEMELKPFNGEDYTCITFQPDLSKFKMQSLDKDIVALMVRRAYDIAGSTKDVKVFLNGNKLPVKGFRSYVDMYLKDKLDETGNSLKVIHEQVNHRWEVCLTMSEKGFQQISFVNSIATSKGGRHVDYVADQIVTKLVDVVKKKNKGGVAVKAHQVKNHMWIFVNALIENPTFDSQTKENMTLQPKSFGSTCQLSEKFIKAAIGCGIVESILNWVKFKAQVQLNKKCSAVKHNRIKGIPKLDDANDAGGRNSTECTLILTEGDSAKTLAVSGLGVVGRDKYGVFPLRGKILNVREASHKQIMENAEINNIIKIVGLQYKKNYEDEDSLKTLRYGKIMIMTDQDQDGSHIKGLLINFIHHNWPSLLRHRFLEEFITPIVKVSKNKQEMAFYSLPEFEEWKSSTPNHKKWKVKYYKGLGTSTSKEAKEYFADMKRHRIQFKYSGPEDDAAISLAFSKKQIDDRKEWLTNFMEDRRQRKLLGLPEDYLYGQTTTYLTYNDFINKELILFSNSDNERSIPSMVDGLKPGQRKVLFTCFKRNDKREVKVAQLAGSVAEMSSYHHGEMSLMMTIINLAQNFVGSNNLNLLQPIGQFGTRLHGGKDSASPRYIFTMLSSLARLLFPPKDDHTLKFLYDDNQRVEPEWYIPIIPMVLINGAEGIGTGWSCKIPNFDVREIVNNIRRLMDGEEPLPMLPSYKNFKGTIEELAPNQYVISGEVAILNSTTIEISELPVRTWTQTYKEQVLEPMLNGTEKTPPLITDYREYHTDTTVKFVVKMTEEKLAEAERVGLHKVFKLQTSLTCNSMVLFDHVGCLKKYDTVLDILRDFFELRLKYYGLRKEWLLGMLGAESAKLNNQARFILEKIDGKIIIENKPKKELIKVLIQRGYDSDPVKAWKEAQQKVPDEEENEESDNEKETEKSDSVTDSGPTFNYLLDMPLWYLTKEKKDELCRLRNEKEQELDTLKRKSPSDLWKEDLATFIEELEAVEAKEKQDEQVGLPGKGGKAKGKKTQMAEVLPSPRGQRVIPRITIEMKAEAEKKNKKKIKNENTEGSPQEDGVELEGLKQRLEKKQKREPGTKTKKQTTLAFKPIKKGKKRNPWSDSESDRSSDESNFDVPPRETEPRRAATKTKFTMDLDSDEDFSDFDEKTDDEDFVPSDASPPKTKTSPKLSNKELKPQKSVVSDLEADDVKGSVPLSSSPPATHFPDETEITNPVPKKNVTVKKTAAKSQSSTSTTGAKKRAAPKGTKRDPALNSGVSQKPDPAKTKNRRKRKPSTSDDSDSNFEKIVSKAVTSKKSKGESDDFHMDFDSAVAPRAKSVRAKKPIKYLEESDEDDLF
measurement-notes: Human topo IIα decatenation assay
Format: biochemical
experimental-parameters: read-out: IC50 Human topo IIα decatenation
pIC50: −log10 of the molar value.
measured-property: pIC50

molecule="COc1cc([C@@H]2c3cc4c(cc3[C@@H](O[C@@H]3O[C@@H]5CO[C@@H](c6cccs6)O[C@H]5[C@H](O)[C@H]3O)[C@H]3COC(=O)[C@H]23)OCO4)cc(OC)c1O [Teniposide]" limit_qualifier== numeric_result=4.74
molecule="O=c1ccc2ncc(=O)n3c2n1C[C@H]3CN1CCC(NCc2cc3c(cn2)OCCC3)CC1 [Gepotidacin, reference compound]" limit_qualifier=< numeric_result=3.70
molecule=Cn1c(=O)ccc2ccc(F)c(CCNC[C@H]3CN(c4cnc5c(n4)NC(=O)CO5)C(=O)O3)c21 limit_qualifier== numeric_result=3.95

###

Entries and their MIC
Test system: E. coli MG1655 (GyrA WT, ParC WT)
measurement-notes: microbe, parasite or virus in culture
Format: cell-based
experimental-parameters: Escherichia coli
measured-property: MIC

compound=CC1(C)S[C@@H]2[C@H](NC(=O)[C@H](N)c3ccccc3)C(=O)N2[C@H]1C(=O)O subject_of_test="E. coli MG1655 (GyrA WT, ParC WT)" measured_property=MIC result="5 µg/mL"
compound="O=c1ccc2ncc(=O)n3c2n1C[C@H]3CN1CCC(NCc2cc3c(cn2)OCCC3)CC1 [Gepotidacin, reference compound]" subject_of_test="E. coli MG1655 (GyrA WT, ParC WT)" measured_property=MIC result="0.47 µg/mL"
compound=Cn1c(=O)ccc2ccc(F)c(CCNC[C@H]3CN(c4cnc5c(n4)NC(=O)CO5)C(=O)O3)c21 subject_of_test="E. coli MG1655 (GyrA WT, ParC WT)" measured_property=MIC result="0.03 µg/mL"
compound=C[C@H]1COc2c(N3CCN(C)CC3)c(F)cc3c(=O)c(C(=O)O)cn1c23 subject_of_test="E. coli MG1655 (GyrA WT, ParC WT)" measured_property=MIC result="0.03 µg/mL"

###

subject-of-test: E. coli GyrA M120K mutant gyrase (Escherichia coli, UniProt P0AES4+P0AES6, M120K)
measurement-notes: biochemical
experimental-parameters: Fig. 6; read-out: IC50 M120K gyrase supercoiling
measured-property: IC50 (µM)

mol_smiles=Cn1c(=O)ccc2ccc(F)c(CCNC[C@H]3CN(c4cnc5c(n4)NC(=O)CO5)C(=O)O3)c21 measured_property=IC50 numeric_result=116

###

subject-of-test: Human topo IIα (Homo sapiens)
measurement-notes: Human topo IIα decatenation assay
Format: biochemical
measured-property: IC50

mol_smiles=C[C@@H]1CN2c3c(cc4c(N5C(=O)OC[C@@H]5C)noc4c3F)CC3(C(=O)NC(=O)NC3=O)[C@H]2[C@H](C)O1 subject_of_test="Human topo IIα (Homo sapiens)" measured_property=IC50 result="> 200 µM"

###

subject-of-test: E. coli GyrA S83L mutant gyrase (Escherichia coli, UniProt P0AES4+P0AES6, S83L)
measurement-notes: biochemical
experimental-parameters: Fig. 6; read-out: IC50 S83L gyrase supercoiling
pIC50: −log10 of the molar value.
measured-property: pIC50

mol_smiles=Cn1c(=O)ccc2ccc(F)c(CCNC[C@H]3CN(c4cnc5c(n4)NC(=O)CO5)C(=O)O3)c21 subject_of_test="E. coli GyrA S83L mutant gyrase (Escherichia coli, UniProt P0AES4+P0AES6, S83L)" numeric_result=8.52
